target: feline FcRn (FCN-F82W3, Acrobiosystems) (feline); test: SPR Carterra, IgG coupled, pH 7.4
Parameter koff: see the listing below.
Number in s⁻¹, nothing else.

| binder | koff, s⁻¹ |
| --- | --- |
| anti-NGF feline IgG1a, Fc variant S434Y, S426L (antibody, part only; not given: anti-NGF variable domains, light chain, not shown: another chain or arm of the molecule; small tags and cut ends) Fc: PPEMLGGPSIFIFPPKPKDTLSISRTPEVTCLVVDLGPDDSDVQITWFVDNTQVYTAKTSPREEQFNSTYRVVSVLPILHQDWLKGKEFKCKVNSKSLPSPIERTISKAKGQPHEPQVYVLPPAQEELSRNKVSVTCLIKSFHPPDIAVEWEITGQPEPENNYRTTPPQLDSDGTYFVYSKLSVDRSHWQRGNTYTCLVSHEALHYHHTQKSLTQSPGK | 0.118 |

Could you share which koff value was measured for anti-NGF feline IgG1a, Fc variant T286E, S428R (antibody, part only; not given: anti-NGF variable domains, not shown: another chain or arm of the molecule; small tags and cut ends) Fc: PPEMLGGPSIFIFPPKPKDTLSISRTPEVTCLVVDLGPDDSDVQITWFVDNTQVYEAKTSPREEQFNSTYRVVSVLPILHQDWLKGKEFKCKVNSKSLPSPIERTISKAKGQPHEPQVYVLPPAQEELSRNKVSVTCLIKSFHPPDIAVEWEITGQPEPENNYRTTPPQLDSDGTYFVYSKLSVDRSHWQRGNTYTCSVRHEALHSHHTQKSLTQSPGK ?
0.113

Could you share which koff value was measured for anti-NGF feline IgG1a, Fc variant S252Y, Q311K (antibody, part only; not given: anti-NGF variable domains, light chain, not shown: another chain or arm of the molecule; small tags and cut ends) Fc: PPEMLGGPSIFIFPPKPKDTLYISRTPEVTCLVVDLGPDDSDVQITWFVDNTQVYTAKTSPREEQFNSTYRVVSVLPILHKDWLKGKEFKCKVNSKSLPSPIERTISKAKGQPHEPQVYVLPPAQEELSRNKVSVTCLIKSFHPPDIAVEWEITGQPEPENNYRTTPPQLDSDGTYFVYSKLSVDRSHWQRGNTYTCSVSHEALHSHHTQKSLTQSPGK ?
0.112

Could you share which koff value was measured for anti-NGF feline IgG1a, Fc variant S252Y, Q311V (antibody, part only; not given: anti-NGF variable domains, light chain, not shown: another chain or arm of the molecule; small tags and cut ends) Fc: PPEMLGGPSIFIFPPKPKDTLYISRTPEVTCLVVDLGPDDSDVQITWFVDNTQVYTAKTSPREEQFNSTYRVVSVLPILHVDWLKGKEFKCKVNSKSLPSPIERTISKAKGQPHEPQVYVLPPAQEELSRNKVSVTCLIKSFHPPDIAVEWEITGQPEPENNYRTTPPQLDSDGTYFVYSKLSVDRSHWQRGNTYTCSVSHEALHSHHTQKSLTQSPGK ?
0.0528
